Ref: patent US8648099B2

Molecular target: human CB1 receptor (Homo sapiens)
Construct: expressed in transfected cells; host or cells: human embryonic kidney (HEK) cells, Semliki Forest Virus system, membrane preparations
Test: CB1 receptor affinity ([3H]-CP-55,940 displacement, HEK cell membranes)
Type: binding
Settings: displacement of [3H]-CP-55,940 at 10 μM; read-out: CB1 receptor affinity [% inhibition @ 10 μM]
For each record, write down the corresponding inhibition at 10 µM.
Give bare numbers, in %.

For each of the compounds below, state inhibition at 10 µM.
1. O=C(NN1CCN(CCO)CC1)c1cnc(OCC(F)(F)F)c(-c2ccc(Cl)cc2)c1
2. NNC(=O)c1cnc(OCC(F)(F)F)c(-c2ccc(Cl)c(F)c2)c1
3. O=C(NNCc1ccncc1)c1cnc(OCC(F)(F)F)c(C2CC2)c1
4. O=C(NN1CC(O)C1)c1cnc(OCC(F)(F)F)c(-c2ccc(Cl)cc2)c1
5. O=C(NN1CCOCC1)c1cnc(OCC(F)(F)F)c(C2CC2)c1
6. COC[C@@H]1CCCN1NC(=O)c1cnc(OCC(F)(F)F)c(C2CC2)c1

Ans:
14
11
11
44
14
21

----------
Target: human CB2 receptor (Homo sapiens, UniProt P34972)
Construct: expressed in transfected cells; host or cells: human embryonic kidney (HEK) cells, Semliki Forest Virus system, membrane preparations
Sequence (P34972 whole entry): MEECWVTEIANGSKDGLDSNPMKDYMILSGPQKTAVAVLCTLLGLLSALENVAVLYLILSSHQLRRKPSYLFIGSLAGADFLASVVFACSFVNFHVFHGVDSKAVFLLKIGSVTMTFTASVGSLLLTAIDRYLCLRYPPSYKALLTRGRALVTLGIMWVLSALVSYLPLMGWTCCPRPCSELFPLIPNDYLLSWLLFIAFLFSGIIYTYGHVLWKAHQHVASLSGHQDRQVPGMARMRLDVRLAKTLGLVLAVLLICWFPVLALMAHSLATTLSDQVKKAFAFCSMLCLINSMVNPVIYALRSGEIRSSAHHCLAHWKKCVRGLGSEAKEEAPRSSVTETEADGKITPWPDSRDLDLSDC
Experiment: CB2 receptor affinity ([3H]-CP-55,940 displacement, HEK cell membranes)
Assay type: binding
Settings: displacement of [3H]-CP-55,940 at 10 μM
Protocol: The affinity of the compounds of the invention for cannabinoid CB2 receptors was determined using membrane preparations of human embryonic kidney (HEK) cells in which the human CB2 receptor is transiently transfected using a Semliki Forest Virus system in conjunction with [^3H]-CP-55,940 as radioligand. […] Radioactivity on the filter was measured by scintillation counting. […]
For each record, write down the corresponding inhibition at 10 µM.

Illustrative cases are given below, each with its answer.
| molecule | measurement-target | inhibition at 10 µM |
| --- | --- | --- |
| O=C(NN1CC(O)C1)c1cnc(OCC(F)(F)F)c(-c2ccc(Cl)cc2)c1 | human CB2 receptor (Homo sapiens, UniProt P34972) | -10% |
| CN(NC(=O)c1cnc(OCC(F)(F)F)c(C2CCN(C(=O)OC(C)(C)C)CC2)c1)c1ccc(F)cc1 | human CB2 receptor (Homo sapiens, UniProt P34972) | 3% |
| CN(NC(=O)c1cnc(OCC(F)(F)F)c(C2CC2)c1)c1ccc(C#N)cc1 | human CB2 receptor (Homo sapiens, UniProt P34972) | 17% |

For each of the molecules below, state inhibition at 10 µM.
1. O=C(NN1CC(CN2CCOCC2)OC1=O)c1cnc(OCC(F)(F)F)c(-c2ccc(Cl)cc2)c1 (stereo not drawn)
2. CN(NC(=O)c1cnc(OCC(F)(F)F)c(C2CCCCC2)c1)c1ccc(Cl)nn1
3. O=C(NN1CCS(=O)(=O)CC1)c1cnc(OCC(F)(F)F)c(-c2ccc(Cl)cc2)c1

Ans:
-4%
-9%
7%

----------
For each record, write down the corresponding inhibition at 10 µM.
Target: human CB1 receptor (Homo sapiens, UniProt P21554)
Construct: expressed in transfected cells; host or cells: human embryonic kidney (HEK) cells, Semliki Forest Virus system, membrane preparations
Sequence (P21554 whole entry): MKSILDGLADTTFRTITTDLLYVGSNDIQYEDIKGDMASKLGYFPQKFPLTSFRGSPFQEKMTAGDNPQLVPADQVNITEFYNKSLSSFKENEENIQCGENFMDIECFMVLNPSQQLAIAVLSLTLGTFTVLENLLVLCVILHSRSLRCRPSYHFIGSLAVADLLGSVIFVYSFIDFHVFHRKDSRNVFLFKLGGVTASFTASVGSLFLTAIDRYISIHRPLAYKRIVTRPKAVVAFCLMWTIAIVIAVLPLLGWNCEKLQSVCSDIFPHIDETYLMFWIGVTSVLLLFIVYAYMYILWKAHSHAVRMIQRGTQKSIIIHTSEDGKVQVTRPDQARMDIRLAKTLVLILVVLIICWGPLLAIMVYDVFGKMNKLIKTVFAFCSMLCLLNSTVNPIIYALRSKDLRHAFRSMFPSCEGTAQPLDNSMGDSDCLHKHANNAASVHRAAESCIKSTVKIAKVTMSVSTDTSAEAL
Test: CB1 receptor affinity ([3H]-CP-55,940 displacement, HEK cell membranes)
Format: binding
Details: displacement of [3H]-CP-55,940 at 10 μM; read-out: CB1 receptor affinity [% inhibition @ 10 μM]
Give bare numbers, in %.

Illustrative cases are given below, each with its answer.
| record-smiles | measured-value |
| --- | --- |
| O=C(NN1CCC(O)CC1)c1cnc(OCC2CC2)c(-c2ccc(Cl)cc2)c1 | 34 |
| CN(NC(=O)c1cnc(OCC(F)(F)F)c(C2CC2)c1)c1ccccc1 | 24 |

For each of the molecules below, state inhibition at 10 µM.
1. CN1CCN(NC(=O)c2cnc(OCC(F)(F)F)c(-c3ccc(Cl)cc3)c2)CC1=O
2. CN(NC(=O)c1cnc(OCC(F)(F)F)c(-c2ccc(Cl)cc2)c1)c1ccc(Cl)nn1
3. CN(NC(=O)c1cnc(OCC(F)(F)F)c(C2CCOCC2)c1)c1ccccc1
4. O=C(NN1CCC(CCO)CC1)c1cnc(OCC(F)(F)F)c(-c2ccc(Cl)cc2)c1
5. CN(NC(=O)c1cnc(OCC(F)(F)F)c(C2CCCCC2)c1)c1ccc(Cl)nn1
6. CN(NC(=O)c1cnc(OC2CCC2)c(-c2ccco2)c1)c1ccncc1

Ans:
1. 25
2. 38
3. 34
4. 45
5. 28
6. 31

----------
For each record, write down the corresponding inhibition at 10 µM.
Target: human CB1 receptor (Homo sapiens)
Construct: expressed in transfected cells; host or cells: human embryonic kidney (HEK) cells, Semliki Forest Virus system, membrane preparations
Test: CB1 receptor affinity ([3H]-CP-55,940 displacement, HEK cell membranes)
Assay type: binding
Conditions: displacement of [3H]-CP-55,940 at 10 μM; read-out: CB1 receptor affinity [% inhibition @ 10 μM]
One number for each entry, in %.

Illustrative cases are given below, each with its answer.
| record-smiles | unit-info | inhibition at 10 µM |
| --- | --- | --- |
| CN(NC(=O)c1cnc(OCC(F)(F)F)c(C2CCCC2)c1)c1ccc(Cl)nn1 | % | 21 |
| O=C(NN1CCC(CO)CC1)c1cnc(OCC(F)(F)F)c(-c2ccc(Cl)cc2)c1 | % | 37 |
| COC[C@@H]1CCCN1NC(=O)c1cnc(OCC(F)(F)F)c(C2CCCCC2)c1 | % | 39 |

Please turn your attention to the following entry.
Q: For the molecule "C[C@@H]1CN(NC(=O)c2cnc(OCC(F)(F)F)c(C3CC3)c2)C[C@H](C)O1" , report inhibition at 10 µM.
Ans: 14

----------
For each record, write down the corresponding EC50.
Test system: ABCA1 protein
Assay: Detection of upregulation of ABCA1 protein in cells (ApoA-I binding, high content imaging)
Format: cell-based
Details: THP-1 macrophage cells, 24 hrs compound incubation; read-out: EC50 [μM] ABCA1 protein increasing efficacy
One number for each entry, in µM.

Illustrative cases are given below, each with its answer.
| record-smiles | assay-metric | measured-value |
| --- | --- | --- |
| O=C(NN1CCOCC1)c1cnc(OCC(F)(F)F)c(C2CCCC2)c1 | EC50 | 1.08 |
| N#Cc1ccc(-c2cc(C(=O)NN3CCC(CCO)CC3)cnc2OCC(F)(F)F)cc1 | EC50 | 0.15 |
| CN(NC(=O)c1cnc(OCC(F)(F)F)c(C2CCOCC2)c1)c1ccccc1 | EC50 | 2.35 |
| O=C(NN1CCC(O)CC1)c1cnc(OCC(F)(F)F)c(-c2ccc(Cl)cc2)c1 | EC50 | 1.11 |

For each of the compounds below, state EC50.
1. O=C(NN1CCOCC1)c1cnc(OCC(F)(F)F)c(C2CC2)c1
2. C[C@@H]1CN(NC(=O)c2cnc(OCC3CC3)c(C3CC3)c2)C[C@H](C)O1

Ans:
1. 1.77
2. 9.4

For each of the compounds below, state EC50.
1. CN(NC(=O)c1cnc(OCC(F)(F)F)c(C2CCN(C(=O)OC(C)(C)C)CC2)c1)c1ccc(F)cc1
2. COC[C@@H]1CCCN1NC(=O)c1cnc(OCC(F)(F)F)c(C2CC2)c1
3. CN(NC(=O)c1cnc(OCC2CC2)c(C2CC2)c1)c1ccccc1
4. N#Cc1ccc(-c2cc(C(=O)NN3CCOCC3)cnc2OCC(F)(F)F)cc1
5. COC[C@@H]1CCCN1NC(=O)c1cnc(OCC(F)(F)F)c(C2CCCC2)c1
6. CC(C)(C)OC(=O)N1CCC(c2cc(C(=O)NN3CCC(CCO)CC3)cnc2OCC(F)(F)F)CC1
7. CN(NC(=O)c1cnc(OCC2CC2)c(C2CC2)c1)c1ccc(F)cc1
8. CN(NC(=O)c1cnc(OCC(F)(F)F)c(C2CC2)c1)c1ccc(F)cc1

Ans:
[0.68, 0.68, 1.04, 1.32, 0.12, 1.8, 1.1, 0.83]

Q: For the compound "CS(=O)(=O)N1CCN(NC(=O)c2cnc(OCC(F)(F)F)c(-c3ccc(Cl)cc3)c2)CC1" , report EC50.
Ans: 0.33

----------
For each record, write down the corresponding inhibition at 10 µM.
Target: human CB2 receptor (Homo sapiens)
Construct: expressed in transfected cells; host or cells: human embryonic kidney (HEK) cells, Semliki Forest Virus system, membrane preparations
Assay: CB2 receptor affinity ([3H]-CP-55,940 displacement, HEK cell membranes)
Type: binding
Settings: displacement of [3H]-CP-55,940 at 10 μM
Numbers only, in %.

| compound | inhibition at 10 µM, % |
| --- | --- |
| O=C(NN1CCCC1)c1cnc(OCC(F)(F)F)c(C2CCCCC2)c1 [Example 21] | -17 |
| CN(NC(=O)c1cnc(OCC(F)(F)F)c(C2CCCCC2)c1)c1ccccc1 [Example 20] | 9 |
| CN(NC(=O)c1cnc(OCC2CC2)c(C2CC2)c1)c1ccc(F)cc1 [Example 41] | 38 |
| O=C(NNCC(F)(F)F)c1cnc(OCC(F)(F)F)c(-c2ccc(Cl)cc2)c1 [Example 1] | 10 |

Please turn your attention to the following entry.
Q: For the compound N#Cc1ccc(-c2cc(C(=O)NN3CCC(CCO)CC3)cnc2OCC(F)(F)F)cc1 [Example 38] , report inhibition at 10 µM.
Ans: -6
